- System: MCF-7 cells
- run-description: MTT cell viability assay, MCF-7
- Type: cell-based, human
- setup-conditions: Homo sapiens, MCF7; 50 μM, 48 h; read-out: Growth (%) MCF-7
measure: activity at 50 µM (%)

• O=C(NC(=[Se])Nc1ccc(C(F)(F)F)cc1)c1ccco1 = 11.9
• O=C(NC(=[Se])Nc1ccccc1)c1ccccc1 = 6.6
• Cc1ccc(NC(=[Se])NC(=O)C=Cc2ccccc2)cc1 = 82.3
• O=C(NC(=[Se])Nc1ccc(Cl)cc1)c1ccccc1Cl = 16
• O=C(NC(=[Se])Nc1ccc(Cl)cc1)c1cc2ccccc2s1 = 44.4
• O=C(NC(=[Se])Nc1ccc(C(F)(F)F)cc1)c1ccccc1Cl = 10.4
• Cc1ccc(NC(=[Se])NC(=O)c2ccccc2Cl)cc1 = 24.7
• Cc1ccc(NC(=[Se])NC(=O)c2ccco2)cc1 = 5.8
• Cc1ccc(NC(=[Se])NC(=O)c2cccnc2Cl)cc1 = 32.4
• O=C(NC(=[Se])Nc1ccc(Cl)cc1)C12CC3CC(CC(C3)C1)C2 = 39
• CSc1ccc(Cl)c(C(=O)NC(=[Se])Nc2ccccc2)c1 = 23.1
• O=C(/C=C/c1ccccc1)NC(=[Se])Nc1ccccc1 = 15.3
• Cc1ccc(NC(=[Se])NC(=O)c2ccccc2)cc1 = 12.6
• CSc1ccc(Cl)c(C(=O)NC(=[Se])Nc2ccc(Cl)cc2)c1 = 32.4
• O=C(NC(=[Se])Nc1ccccc1)c1cccnc1Cl = 29.3
• COc1ccc(NC(=[Se])NC(=O)C=Cc2ccccc2)cc1 = 5.7
• COc1ccc(NC(=[Se])NC(=O)c2ccco2)cc1 = 13.1
• O=C(NC(=[Se])Nc1ccc(Cl)cc1)c1ccc2c(c1)OCO2 [Compound 10e] = 16.9
• O=C(NC(=[Se])Nc1ccc(Cl)cc1)c1ccco1 = 11.2
• O=C(NC(=[Se])Nc1ccccc1)c1ccco1 = 5
• COc1ccc(NC(=[Se])NC(=O)c2ccc3c(c2)OCO3)cc1 [Compound 10c] = 15.6
• O=C(NC(=[Se])Nc1ccc(C(F)(F)F)cc1)c1cc2ccccc2s1 = 70.2
• O=C(NC(=[Se])Nc1ccc(Cl)cc1)c1cccs1 = 20.8
• O=C(NC(=[Se])Nc1ccc(C(F)(F)F)cc1)c1ccccc1 = 21.9

###

# activity at 50 µM listing for each entry below
- Test system: MCF-7 cells
- run-description: MTT cell viability assay, MCF-7
- Type: cell-based, human
- setup-conditions: Homo sapiens, MCF7; 50 μM, 48 h; read-out: Growth (%) MCF-7
measure: activity at 50 µM (%)

* O=C(NC(=[Se])Nc1ccc(C(F)(F)F)cc1)c1cccnc1Cl [Compound 4d] | 48.9
* Cc1ccc(NC(=[Se])NC(=O)c2cccs2)cc1 [Compound 5b] | 17.5
* COc1ccc(NC(=[Se])NC(=O)c2cccnc2Cl)cc1 [Compound 4c] | 33
* O=C(NC(=[Se])Nc1ccc(C(F)(F)F)cc1)c1ccc2c(c1)OCO2 [Compound 10d] | 8.4
* COc1ccc(NC(=[Se])NC(=O)c2ccccc2)cc1 [Compound 1c] | 13.9
* Cc1ccc(NC(=[Se])NC(=O)c2ccc3c(c2)OCO3)cc1 [Compound 10b] | 7.4
* O=C(C=Cc1ccccc1)NC(=[Se])Nc1ccc(Cl)cc1 [Compound 8e] | 11.8
* COc1ccc(NC(=[Se])NC(=O)c2cc3ccccc3s2)cc1 [Compound 9c] | 49.2
* O=C(NC(=[Se])Nc1ccc(Cl)cc1)c1cccnc1Cl [Compound 4e] | 60.2
